# Species: Rattus norvegicus
# ASSAY_COMMENT: Open TG-GATES - Regimen: Single
# Type: toxicity, organism-based, Sprague-Dawley
# Design: regimen Single, gender Male, age 6 weeks
# ASSAY_CONTEXT: in vivo, po, 0 mg/kg, 6 h, tissue Plasma, route gavage, dose level Control
Values of DBIL greater than or equal to 0.02 mg/dL map to y; values below map to n.

INPUT: Decide: is the reported value of DBIL for CC(=O)Oc1ccccc1C(=O)O [ASPIRIN] equal to or greater than 0.02 mg/dL?
OUTPUT: y

INPUT: Decide: is the reported value of DBIL for O=C(O)c1cc(/N=N/c2ccc(S(=O)(=O)Nc3ccccn3)cc2)ccc1O [SULFASALAZINE] equal to or greater than 0.02 mg/dL?
OUTPUT: y

INPUT: Decide: is the reported value of DBIL for CN(C)CCC=C1c2ccccc2CCc2ccccc21 [AMITRIPTYLINE] equal to or greater than 0.02 mg/dL?
OUTPUT: n

INPUT: Decide: is the reported value of DBIL for CCc1cc(C(N)=S)ccn1 [ETHIONAMIDE] equal to or greater than 0.02 mg/dL?
OUTPUT: n

INPUT: Decide: is the reported value of DBIL for CSc1ccc2c(c1)N(CCC1CCCCN1C)c1ccccc1S2 (centres undefined) [THIORIDAZINE] equal to or greater than 0.02 mg/dL?
OUTPUT: n

INPUT: Decide: is the reported value of DBIL for Clc1ccccc1CN1CCc2sccc2C1 [TICLOPIDINE] equal to or greater than 0.02 mg/dL?
OUTPUT: y

INPUT: Decide: is the reported value of DBIL for Cn1c(=O)c2[nH]cnc2n(C)c1=O.O [THEOPHYLLINE] equal to or greater than 0.02 mg/dL?
OUTPUT: n

INPUT: Decide: is the reported value of DBIL for O=C(O)c1cn(C2CC2)c2cc(N3CCNCC3)c(F)cc2c1=O [CIPROFLOXACIN] equal to or greater than 0.02 mg/dL?
OUTPUT: y

INPUT: Decide: is the reported value of DBIL for C[C@H](CS)C(=O)N1CCC[C@H]1C(=O)O [CAPTOPRIL] equal to or greater than 0.02 mg/dL?
OUTPUT: n

###

# Organism: Rattus norvegicus
# ASSAY_COMMENT: Open TG-GATES - Regimen: Single
# Assay type: toxicity, organism-based, Sprague-Dawley
# Parameters: regimen Single, gender Male, age 6 weeks
# ASSAY_CONTEXT: in vivo, po, 0 mg/kg, 6 h, tissue Plasma, route gavage, dose level Control
OBSERVED_PROPERTY: PL (mg/dL)
Just the number please, in mg/dL, no unit attached.

INPUT: For the molecule O=C(O)c1cc(/N=N/c2ccc(S(=O)(=O)Nc3ccccn3)cc2)ccc1O [SULFASALAZINE] , what PL is on record?
OUTPUT: 141.2

INPUT: For the molecule COc1ccc(Cc2nccc3cc(OC)c(OC)cc23)cc1OC [PAPAVERINE] , what PL is on record?
OUTPUT: 131.6

INPUT: For the molecule CN(C)CCC=C1c2ccccc2CCc2ccccc21 [AMITRIPTYLINE] , what PL is on record?
OUTPUT: 142.6

INPUT: For the molecule C[C@H](CS)C(=O)N1CCC[C@H]1C(=O)O [CAPTOPRIL] , what PL is on record?
OUTPUT: 135.6

INPUT: For the molecule O=C(O)c1cn(C2CC2)c2cc(N3CCNCC3)c(F)cc2c1=O [CIPROFLOXACIN] , what PL is on record?
OUTPUT: 136

INPUT: For the molecule CCc1cc(C(N)=S)ccn1 [ETHIONAMIDE] , what PL is on record?
OUTPUT: 150

INPUT: For the molecule Cn1c(=O)c2[nH]cnc2n(C)c1=O.O [THEOPHYLLINE] , what PL is on record?
OUTPUT: 124.6

INPUT: For the molecule NC(=O)N/N=C/c1ccc([N+](=O)[O-])o1 [NITROFURAZONE] , what PL is on record?
OUTPUT: 132.2

INPUT: For the molecule Clc1ccccc1CN1CCc2sccc2C1 [TICLOPIDINE] , what PL is on record?
OUTPUT: 126.8

INPUT: For the molecule CSc1ccc2c(c1)N(CCC1CCCCN1C)c1ccccc1S2 (stereo not given) [THIORIDAZINE] , what PL is on record?
OUTPUT: 147

###

# Species: Rattus norvegicus
# ASSAY_COMMENT: Open TG-GATES - Regimen: Single
# Format: toxicity, organism-based, Sprague-Dawley
# Design: regimen Single, gender Male, age 6 weeks
# ASSAY_CONTEXT: in vivo, po, 1000 mg/kg, 24 h, tissue Blood, route gavage, dose level High
OBSERVED_PROPERTY: Neu (%)
Just the number please, in %, no unit attached.

INPUT: For the compound "O=C(O)c1cn(C2CC2)c2cc(N3CCNCC3)c(F)cc2c1=O" , what Neu is on record?
OUTPUT: 12.6

INPUT: For the compound "C[C@H](CS)C(=O)N1CCC[C@H]1C(=O)O" , what Neu is on record?
OUTPUT: 14.8

INPUT: For the compound CCc1cc(C(N)=S)ccn1 [ETHIONAMIDE] , what Neu is on record?
OUTPUT: 28.2

###

# Organism: Rattus norvegicus
# ASSAY_COMMENT: Open TG-GATES - Regimen: Daily Repeat
# Format: toxicity, organism-based, Sprague-Dawley
# Design: regimen Daily Repeat, gender Male, age 6 weeks
# ASSAY_CONTEXT: in vivo, po, 0 mg/kg, […], tissue Plasma, route gavage, dose level Control, time 14 day
OBSERVED_PROPERTY: AST (IU/L)
Just the number please, in IU/L, no unit attached.

INPUT: For the molecule "C[C@H](CS)C(=O)N1CCC[C@H]1C(=O)O" , what AST is on record?
OUTPUT: 60.2

INPUT: For the molecule "COc1ccc2c(c1)c(CC(=O)O)c(C)n2C(=O)c1ccc(Cl)cc1" , what AST is on record?
OUTPUT: 60.6

INPUT: For the molecule "O=C(O)c1cn(C2CC2)c2cc(N3CCNCC3)c(F)cc2c1=O" , what AST is on record?
OUTPUT: 58.4

###

# Species on record: Rattus norvegicus
# ASSAY_COMMENT: Open TG-GATES - Regimen: Daily Repeat
# Type: toxicity, organism-based, Sprague-Dawley
# Parameters: regimen Daily Repeat, gender Male, age 6 weeks
# ASSAY_CONTEXT: in vivo, po, 0 mg/kg, […], tissue Blood, route gavage, dose level Control, time 7 day
OBSERVED_PROPERTY: Lym (%)
Just the number please, in %, no unit attached.

INPUT: For the molecule "COc1ccc(Cc2nccc3cc(OC)c(OC)cc23)cc1OC" , what Lym is on record?
OUTPUT: 80

INPUT: For the molecule "O=C(O)c1cn(C2CC2)c2cc(N3CCNCC3)c(F)cc2c1=O" , what Lym is on record?
OUTPUT: 82.2

INPUT: For the molecule "Clc1ccccc1CN1CCc2sccc2C1" , what Lym is on record?
OUTPUT: 81.6

###

# Organism: Rattus norvegicus
# ASSAY_COMMENT: Open TG-GATES - Regimen: Daily Repeat
# Format: toxicity, organism-based, Sprague-Dawley
# Design: regimen Daily Repeat, gender Male, age 6 weeks
# ASSAY_CONTEXT: in vivo, po, 0 mg/kg, 72 h, tissue Plasma, route gavage, dose level Control, time 3 day
Record form. Attribute: gamma-GTP. Fill in for each entry.

INPUT: For the molecule "COc1ccc2c(c1)c(CC(=O)O)c(C)n2C(=O)c1ccc(Cl)cc1" , what gamma-GTP is on record?
OUTPUT: 1 IU/L

INPUT: For the molecule "CC(=O)Oc1ccccc1C(=O)O" , what gamma-GTP is on record?
OUTPUT: 1 IU/L

INPUT: For the molecule "NC(=O)N/N=C/c1ccc([N+](=O)[O-])o1" , what gamma-GTP is on record?
OUTPUT: 1 IU/L

###

# Species on record: Rattus norvegicus
# ASSAY_COMMENT: Open TG-GATES - Regimen: Single
# Format: toxicity, organism-based, Sprague-Dawley
# Set-up: regimen Single, gender Male, age 6 weeks
# ASSAY_CONTEXT: in vivo, po, 0 mg/kg, 9 h, tissue Plasma, route gavage, dose level Control
Record form. Attribute: gamma-GTP. Fill in for each entry.
Just the number please, in IU/L, no unit attached.

INPUT: For the compound "NC(=O)N/N=C/c1ccc([N+](=O)[O-])o1" , what gamma-GTP is on record?
OUTPUT: 1.4

INPUT: For the compound CSc1ccc2c(c1)N(CCC1CCCCN1C)c1ccccc1S2 (stereo not drawn) , what gamma-GTP is on record?
OUTPUT: 1.2

INPUT: For the compound "O=C(O)c1cc(/N=N/c2ccc(S(=O)(=O)Nc3ccccn3)cc2)ccc1O" , what gamma-GTP is on record?
OUTPUT: 2
